- tested-target: T1, human programmed cell death protein 1 (hPD-1) C93S (aa 24-167) (Homo sapiens, UniProt Q15116, C93S)
- T1 construct: made as a fusion with a TEV site and human Fc; the Fc was cut off with TEV protease; source: Expi293F, purified (Protein A, TEV cleavage of Fc, SEC; monomer fractions); not shown: Fc (human), C-terminal, cleaved
- T1 sequence (Q15116 24-167 C93S): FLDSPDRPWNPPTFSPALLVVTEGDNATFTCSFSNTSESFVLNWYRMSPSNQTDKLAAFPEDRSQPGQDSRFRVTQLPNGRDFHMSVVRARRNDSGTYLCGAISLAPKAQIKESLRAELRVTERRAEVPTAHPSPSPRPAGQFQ
- experiment: SPR; Carterra LSA; Fab from the ammonium sulfate precipitate of the culture supernatant immobilised on a NiHC200M chip; hPD-1 (1-1024 nM) or mPD-1-Fc (4-1024 nM) as analyte, fourfold dilution series, no regeneration; HBS-EP pH 7.4, 25 °C; medians over the spots of a construct, KD = koff/kon
- condition-context: one partner purified
parameter-measured: koff (s⁻¹)
API: value field is a number in s⁻¹; no unit string.

**Q:** Name the recorded koff for toripalimab Fab H.I101A (Fab, V domains shown, heavy chain of Sm3 with this change; numbers count from the chain's first residue; as the light chain of Sm3; source: Brevibacillus, culture supernatant (ammonium sulfate precipitate); not shown: 6xHis, C-terminal, kept; 6xHN, C-terminal, kept) VH: QGQLVQSGAEVKKPGASVKVSCKASGYTFTDYEMHWVRQAPIHGLEWIGVIESETGGTAYNQKFKGRVTITADKSTSTAYMELSSLRSEDTAVYYCAREGATTVATTYYWYFDVWGQGTTVTVSS VL: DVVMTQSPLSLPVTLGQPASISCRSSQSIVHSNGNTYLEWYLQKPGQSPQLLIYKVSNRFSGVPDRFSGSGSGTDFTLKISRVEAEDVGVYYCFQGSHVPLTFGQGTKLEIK .
**A:** 0.000592

**Q:** Item: toripalimab Fab L.P100I (Fab, V domains shown, as the heavy chain of Sm3; light chain of Sm3 with this change; numbers count from the chain's first residue; source: Brevibacillus, culture supernatant (ammonium sulfate precipitate); not shown: 6xHis, C-terminal, kept; 6xHN, C-terminal, kept) VH: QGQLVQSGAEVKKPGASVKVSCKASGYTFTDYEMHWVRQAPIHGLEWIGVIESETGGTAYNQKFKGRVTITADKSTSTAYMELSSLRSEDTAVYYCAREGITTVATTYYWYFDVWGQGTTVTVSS VL: DVVMTQSPLSLPVTLGQPASISCRSSQSIVHSNGNTYLEWYLQKPGQSPQLLIYKVSNRFSGVPDRFSGSGSGTDFTLKISRVEAEDVGVYYCFQGSHVILTFGQGTKLEIK
**A:** 8.88e-05
